The compounds listed here are annotated with their EC50.
# assayExplanation: cells
# details: Influenza A virus, MDCK

compound | EC50
CC1(C)N=C(N)N=C(N)N1c1ccc(C(=O)O)cc1 | > 83 µM
CC1(C)N=C(N)N=C(N)N1c1cccc(F)c1 | > 100 µM
NC1=NC2(CCCC2)N(c2cccc(C(F)(F)F)c2)C(N)=N1 | > 100 µM
NC12CC3CC(CC(C3)C1)C2 [AMANTADINE] | 124 µM

###

# Tested on: Influenza B virus
# assayExplanation: microbe, parasite or virus in culture
# details: B/Ned/537/05, MDCK
# EC50 listing for each entry below

compound | targetSystem | unitAbbreviation | qualifierSymbol | EC50
CC1(C)N=C(N)N=C(N)N1c1cccc(F)c1 | Influenza B virus | µM | = | 1.7
CC1N=C(N)N=C(N)N1c1ccc(Cl)cc1 (stereo unspecified) | Influenza B virus | µM | = | 17
NC1=NC2(CCCC2)N(c2cccc(C(F)(F)F)c2)C(N)=N1 | Influenza B virus | µM | = | 1.6
CC1(C)N=C(N)N=C(N)N1c1ccc(Cl)c(Cl)c1 [CHLORCYCLOGUANIL] | Influenza B virus | µM | = | 0.08
CC(C)C1(C)N=C(N)N=C(N)N1c1ccc(Cl)cc1 (stereo unspecified) | Influenza B virus | µM | = | 2.8
CC1(C)N=C(N)N=C(N)N1c1ccc([N+](=O)[O-])cc1 | Influenza B virus | µM | = | 35
CC1(C)N=C(N)N=C(N)N1c1ccc(Cl)cc1Cl | Influenza B virus | µM | > | 100
CC1(C)N=C(N)N=C(N)N1c1ccc(Br)cc1 | Influenza B virus | µM | = | 2.9
CCCC1N=C(N)N=C(N)N1c1ccc(Cl)cc1 (stereo unspecified) | Influenza B virus | µM | = | 29
CC1(C)N=C(N)N=C(Nc2ccc(Cl)cc2)N1 | Influenza B virus | µM | > | 100
NC1=NC2(CCCC2)N(c2ccc(Cl)cc2)C(N)=N1 | Influenza B virus | µM | = | 18
CC1(C)N=C(N)N=C(N)N1c1ccc(C(=O)O)cc1 | Influenza B virus | µM | > | 100
CC1(C)N=C(N)N=C(N)N1c1ccccc1Cl | Influenza B virus | µM | = | 56
CC1(C)N=C(N)N=C(N)N1c1cc(C(F)(F)F)cc(C(F)(F)F)c1 | Influenza B virus | µM | = | 1.8
NC1=NC2(CCCCC2)N(c2cccc(Cl)c2)C(N)=N1 | Influenza B virus | µM | = | 10
NC1=NC2(CCCCC2)N(c2ccc(Cl)cc2)C(N)=N1 | Influenza B virus | µM | > | 83
CC(=O)N[C@H]1[C@H]([C@H](O)[C@H](O)CO)OC(C(=O)O)=C[C@@H]1N=C(N)N [ZANAMIVIR] | Influenza B virus | µM | = | 0.06
N=C(N)NC(=N)Nc1ccc(Cl)cc1 [4-CHLOROPHENYLBIGUANIDE] | Influenza B virus | µM | > | 100
NC1=NC2(CCCC2)N(c2cccc(Cl)c2)C(N)=N1 | Influenza B virus | µM | = | 4.5
Cc1ccc(N2C(N)=NC(N)=NC2(C)C)cc1 | Influenza B virus | µM | = | 11
NC1=NC(c2ccccc2)N(c2ccc(Cl)cc2)C(N)=N1 (stereo unspecified) | Influenza B virus | µM | > | 100
CCC1(C)N=C(N)N=C(N)N1c1ccc(Cl)cc1 (stereo unspecified) | Influenza B virus | µM | = | 8.3
CC(N)C12CC3CC(CC(C3)C1)C2 (stereo unspecified) [RIMANTADINE] | Influenza B virus | µM | > | 400
[H]/N=C(\N/C(=N/[H])Nc1ccc(Cl)cc1)NC(C)C [PROGUANIL] | Influenza B virus | µM | > | 100
NC12CC3CC(CC(C3)C1)C2 [AMANTADINE] | Influenza B virus | µM | > | 400
CCOC(=O)c1ccc(N2C(N)=NC(N)=NC2(C)C)cc1 | Influenza B virus | µM | > | 100

Where do the numbers come from? From ChEMBL document CHEMBL4052640.
